# ASSAY_INFO: in vivo
# MEASUREMENT_SETUP: mouse
MEASURED_PROPERTY: MTD (mg/kg)
Numbers only, in mg/kg.

Task: For the compound Cc1ccc(NC(=O)c2cccc(S(=O)(=O)C(F)(F)F)c2)cc1Nc1nccc(-c2cccnc2)n1 [AN024] , what MTD is on record?
Output: 500

---

# ASSAY_INFO: in vivo
# MEASUREMENT_SETUP: mouse, po
MEASURED_PROPERTY: LD50 (mg/kg)
One number for each entry, in mg/kg.

Task: For the compound Cc1ccc(NC(=O)c2cccc(S(=O)(=O)C(F)(F)F)c2)cc1Nc1nccc(-c2cccnc2)n1 , what LD50 is on record?
Output: 1440
